experiment: Quantitative solubility determination of voruciclib malonate after the thermocycling experiments (UPLC); type: physicochemical; conditions: dichloromethane, organic solvent or mixture, thermodynamic from solid, Dichloromethane, read-out: Solubility
Reported Property: solubility (µg/mL)

>>> numeric_readout("CN1CC[C@H](c2c(O)cc(O)c3c(=O)cc(-c4ccc(C(F)(F)F)cc4Cl)oc23)[C@H]1CO (stereo in doubt) [voruciclib malonate]")
300

----------
assay: Quantitative solubility determination of voruciclib malonate after the thermocycling experiments (UPLC); format: physicochemical; details: methyl ethyl ketone, organic solvent or mixture, thermodynamic from solid, Methyl ethyl ketone, read-out: Solubility
Reported Property: solubility (µg/mL)

>>> numeric_readout("CN1CC[C@H](c2c(O)cc(O)c3c(=O)cc(-c4ccc(C(F)(F)F)cc4Cl)oc23)[C@H]1CO (stereo in doubt) [voruciclib malonate]")
2900
